Target: KRAS G12D (Homo sapiens (Human), UniProt P01116, G12D)
Sequence (P01116-2 other isoform, or with tags, fused parts or gaps G12D): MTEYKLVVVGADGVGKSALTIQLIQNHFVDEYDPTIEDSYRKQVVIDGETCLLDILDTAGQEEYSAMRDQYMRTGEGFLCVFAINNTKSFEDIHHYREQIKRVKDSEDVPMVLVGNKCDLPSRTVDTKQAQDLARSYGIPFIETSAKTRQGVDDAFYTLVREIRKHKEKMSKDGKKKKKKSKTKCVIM
Test: KRAS G12D LoEnz Biochemical Assay, BODIPY-GDP Exchange TR-FRET (SOS1-mediated nucleotide exchange)
Details: read-out: KRas (G12D) GDP HTRF IC50
Description: Example 500: KRAS G12D LoEnz Biochemical Assay, BODIPY-GDP Exchange TR-FRET. Biochemical compound potencies are assessed by evaluating inhibition of SOS1I-mediated nucleotide exchange in KRAS G121D. In this assay, the SOS1-promoted exchange of fluorescently-labeled GDP (BOPIDY-GDP) is monitored by time-resolved fluorescence resonance energy transfer (TR-FRET). […] After a 120-minute incubation, the fluorescence is measured with excitation at 337 nm and emission at 490 and 520 nm. […]
pIC50: −log10 of the molar value.
MEASUREMENT_KIND: pIC50

[[record]]
compound = "Cc1nc(N)cc(-c2nc3c4c(nc(OC[C@@]56CCCN5C[C@H](F)C6)nc4c2F)N2C[C@H]4CC[C@H](N4)[C@H]2[C@H](C)O3)c1OC(F)F"
measurement_kind = "pIC50"
reported = 8.90

[[record]]
compound = "Nc1nc2c(-c3nc4c5c(ncnc5c3F)N3C[C@H]5CC[C@H](N5)[C@H]3CO4)ccc(F)c2s1"
measurement_kind = "pIC50"
reported = 4.65

[[record]]
compound = "C[C@@H]1Oc2nc(-c3cc(O)cc4ccc(F)c(F)c34)c(F)c3nc(OC[C@@]45CCCN4C[C@H](F)C5)nc(c23)N2C[C@H]3CC[C@H](N3)[C@@H]12"
measurement_kind = "pIC50"
reported = 6.44

[[record]]
compound = "C#Cc1c(F)ccc2cc(O)cc(-c3nc4c5c(nc(OC[C@@]67CCCN6C[C@H](F)C7)nc5c3F)N3C[C@H]5CC[C@H](N5)[C@H]3[C@H](C)O4)c12"
measurement_kind = "pIC50"
reported = 10.23

[[record]]
compound = "Cc1c(F)c(N)cc(-c2nc3c4c(nc(OC[C@@H]5C[C@@H]6C[N@@]5CCO6)nc4c2F)N2C[C@H]4CC[C@H](N4)[C@H]2[C@H](C)O3)c1C(F)(F)F (single isomer, unassigned) [151 (isomer 1)]"
measurement_kind = "pIC50"
reported = 8.74

[[record]]
compound = "Cc1cc(N)c(F)c(-c2nc3c4c(nc(OC[C@@]56CCCN5C[C@H](F)C6)nc4c2F)N2C[C@H]4CC[C@H](N4)[C@H]2[C@H](C)O3)c1CC(F)(F)F"
measurement_kind = "pIC50"
reported = 9.57

[[record]]
compound = "Cc1nc(N)c(F)c(-c2nc3c4c(nc(OCC5(CN6C[C@H]7C[C@@H]6CO7)CC5)nc4c2F)N2C[C@H]4CC[C@H](N4)[C@H]2[C@H](C)O3)c1C(F)(F)F"
measurement_kind = "pIC50"
reported = 8.47

[[record]]
compound = "COCC1(F)CCN(CC2(COc3nc4c5c(nc(-c6cc(N)nc(C)c6C(F)(F)F)c(F)c5n3)O[C@@H](C)[C@@H]3[C@@H]5CC[C@H](CN43)N5)CC2)C1 (some centres unmarked)"
measurement_kind = "pIC50"
reported = 9.59

[[record]]
compound = "Cc1cc(N)c(Cl)c(-c2nc3c4c(nc(OC[C@@]56CCCN5C[C@H](F)C6)nc4c2F)N2C[C@H]4CC[C@H](N4)[C@H]2[C@H](C)O3)c1C(F)(F)F"
measurement_kind = "pIC50"
reported = 9.77

[[record]]
compound = "Cc1c(F)c(N)cc(-c2nc3c4c(nc(OC[C@@]56CCCN5C[C@H](F)C6)nc4c2F)N2C[C@H]4CC[C@H](N4)[C@H]2[C@H](C)O3)c1S(C)(=O)=O"
measurement_kind = "pIC50"
reported = 7.76

[[record]]
compound = "Cc1cc(N)c(F)c(-c2nc3c4c(nc(OC[C@@H]5CC[C@H]6COCCN65)nc4c2F)N2C[C@H]4CC[C@H](N4)[C@H]2[C@H](C)O3)c1C(F)(F)C(F)(F)F"
measurement_kind = "pIC50"
reported = 8.83


Cited source for all entries: patent US20240025919A1
